System: Primary T cells
Assay procedure: Cytotoxicity, viability by flow cytometry
Assay type: cell-based
Cond: Table 4; toxic dose 50%, viable cells
Each item that follows carries a reported TD50.

Worked examples, 6 molecules total:
COc1ccc(Nc2cc(-c3ccccc3OC)ncn2)cc1C(=O)N(C)N = >10 µM
COc1ccc(Nc2cc(-c3ccc(F)cc3OC)ncn2)cc1OC(C)=O = >2 µM
COC(=O)Nc1cc(Nc2cc(-c3ccc(F)cc3OC)ncn2)ccc1OC = >2 µM
COc1ccc(Nc2cc(-c3ccccc3OC)ncn2)cc1OCCN1CCOCC1 = >1.5 µM
COc1ccc(Nc2cc(-c3ccccc3OC)ncn2)cc1NC(=O)OCC(Cl)(Cl)Cl = >0.5 µM
CC[C@H](CO)Nc1nc(NCc2ccccc2)c2ncn(C(C)C)c2n1 [Roscovitine, reference compound] = 8 µM

Please fill in: TD50 reported for COc1ccccc1-c1cc(Nc2ccc(Cl)c(CN3C(=O)c4ccccc4C3=O)c2)ncn1 = >0.5 µM

Please fill in: TD50 reported for COc1ccc(Nc2cc(-c3ccc(F)cc3OC)ncn2)cc1NC(C)=O = >2 µM

---

System: Primary T cells
Assay procedure: Cytotoxicity, viability by flow cytometry
Format: cell-based
Endpoint label: TD50 (µM)
Report as a plain number; the unit µM is understood.

Worked examples, 10 compounds total:
COc1ccc(Nc2cc(-c3ccccc3OC)ncn2)cc1N = 8.5
COc1cc(F)c(Nc2cc(-c3ccc(F)cc3OC)ncn2)cc1C(N)=O = 10
CCOc1ccc(Nc2cc(-c3ccccc3OC)ncn2)cc1N = 12
COc1ccc(Nc2cc(-c3ccccc3OC)ncn2)cc1CN = 2
COc1ccc(Nc2cc(-c3ccc(F)cc3OC)ncn2)cc1O = 7
COc1ccc(Nc2cc(-c3ccc(F)cc3OC)ncn2)cc1N = 5
CCOc1cc(F)ccc1-c1cc(Nc2ccc(OC)c(N)c2)ncn1 = 6
COc1ccc(Nc2cc(-c3ccccc3OC)ncn2)cc1CNCc1ccccc1 = 3.5
CCOc1ccc(Nc2cc(-c3ccccc3OC)ncn2)cc1Cn1cnc2ccccc21 = 0.6
COc1ccccc1-c1cc(Nc2ccc(N3CCN(C)CC3)c(Cn3cnc4ccccc43)c2)ncn1 = 0.4

Okay, now this compound:
Please fill in: TD50 reported for COc1ccc(Nc2cc(-c3ccccc3OC)ncn2)cc1OC(=O)C(C)(C)C = 6

---

Test target: human CDK9/CyclinT kinase complex (Homo sapiens (Human))
Assay procedure: In Vitro CDK9/CyclinT Assay (IMAP fluorescent polarization)
Type: biochemical
Cond: Table 1
pIC50: −log10 of the molar value.
Endpoint label: pIC50

Considering COc1ccccc1-c1cc(Nc2ccc(N3CCN(C)CC3)c(Cn3cnc4ccccc43)c2)ncn1 , its pIC50 with human CDK9/CyclinT kinase complex (Homo sapiens (Human)) was recorded as > 7.00

Considering COc1ccc(Nc2cc(-c3ccc(F)cc3OC(C)C)ncn2)cc1[N+](=O)[O-] , its pIC50 with human CDK9/CyclinT kinase complex (Homo sapiens (Human)) was recorded as > 6.00

Considering COc1cc(F)ccc1-c1cc(Nc2ccc(F)c(N)c2)ncn1 , its pIC50 with human CDK9/CyclinT kinase complex (Homo sapiens (Human)) was recorded as > 6.00

---

Each item that follows carries a reported IC50.
Test target: human CDK9/CyclinT kinase complex (Homo sapiens (Human), UniProt P50750)
Sequence (P50750 whole entry): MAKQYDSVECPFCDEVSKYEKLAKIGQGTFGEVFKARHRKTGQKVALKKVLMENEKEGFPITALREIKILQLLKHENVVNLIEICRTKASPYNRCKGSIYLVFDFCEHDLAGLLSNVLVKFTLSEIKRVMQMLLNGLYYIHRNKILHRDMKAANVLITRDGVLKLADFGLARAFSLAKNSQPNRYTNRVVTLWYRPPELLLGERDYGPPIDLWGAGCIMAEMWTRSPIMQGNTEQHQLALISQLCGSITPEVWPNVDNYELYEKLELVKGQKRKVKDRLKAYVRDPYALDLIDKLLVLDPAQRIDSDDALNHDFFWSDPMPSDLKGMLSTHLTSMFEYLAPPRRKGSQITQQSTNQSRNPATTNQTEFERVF
Sequence (O60563 whole entry partner): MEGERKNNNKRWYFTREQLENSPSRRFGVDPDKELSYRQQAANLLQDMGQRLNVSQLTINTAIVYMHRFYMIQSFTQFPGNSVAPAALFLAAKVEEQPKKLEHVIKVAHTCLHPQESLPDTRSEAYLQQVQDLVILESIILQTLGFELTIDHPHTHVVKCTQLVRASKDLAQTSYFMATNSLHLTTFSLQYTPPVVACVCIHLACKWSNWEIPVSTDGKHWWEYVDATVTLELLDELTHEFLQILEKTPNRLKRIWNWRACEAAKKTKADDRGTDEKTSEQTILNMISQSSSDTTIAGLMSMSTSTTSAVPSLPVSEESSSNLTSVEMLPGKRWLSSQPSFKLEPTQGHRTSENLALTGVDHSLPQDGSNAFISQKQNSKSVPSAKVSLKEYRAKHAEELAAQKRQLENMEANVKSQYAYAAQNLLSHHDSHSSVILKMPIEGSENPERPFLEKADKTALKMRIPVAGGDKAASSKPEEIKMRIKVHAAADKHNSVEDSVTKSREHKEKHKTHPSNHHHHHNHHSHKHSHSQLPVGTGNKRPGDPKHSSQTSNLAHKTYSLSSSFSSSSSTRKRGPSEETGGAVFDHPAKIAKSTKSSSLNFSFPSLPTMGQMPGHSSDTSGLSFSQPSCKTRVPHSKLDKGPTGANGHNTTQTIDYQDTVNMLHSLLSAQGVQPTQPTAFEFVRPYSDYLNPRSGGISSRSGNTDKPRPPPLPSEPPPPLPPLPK
Assay procedure: In Vitro CDK9/CyclinT Assay (IMAP fluorescent polarization)
Format: biochemical
Cond: Table 1

COc1ccc(Nc2cc(-c3ccccc3OC)ncn2)cc1F [Example 22] = < 1 µM
COc1ccc(Nc2cc(-c3ccccc3OC(C)C)ncn2)cc1[N+](=O)[O-] [Example 78] = < 10 µM
COc1ccccc1-c1cc(Nc2cc(F)c(OC)c(C(N)=O)c2)ncn1 [Example 137] = < 10 µM
COc1ccc(Nc2cc(-c3ccccc3OC)ncn2)cc1NC=O [Example 55] = < 0.1 µM
COc1ccc(Nc2cc(-c3ccccc3OC)ncn2)cc1O [Example 32] = < 0.1 µM

Please fill in: IC50 reported for COc1ccccc1-c1cc(Nc2ccc(N3CCOCC3)c(CO)c2)ncn1 [Example 19] = < 1 µM

Please fill in: IC50 reported for COc1ccccc1-c1cc(Nc2ccc(Cl)c(CO)c2)ncn1 [Example 6] = < 1 µM

Please fill in: IC50 reported for CCOC(=O)c1cc(Nc2cc(-c3ccccc3OC)ncn2)ccc1N1CCOCC1 [Example 18] = < 1 µM

Please fill in: IC50 reported for CCOc1ccccc1-c1cc(Nc2ccc(OC)c(N)c2)ncn1 [Example 62] = < 1 µM

FYI, the data here is from patent US9617225B2.
